assay: PK drug-drug interaction between SOF and Compound I; format: in vivo, human; conditions: human, in vivo; SOF 400 mg + Compound I 150 mg, GLSM
parameterMeasured: AUC(0-t) (ng·h/mL)
Expressed in ng·h/mL, but write only the number.

Please supply the value of reported AUC(0-t) for the item CC(C)OC(=O)[C@H](C)N[P@](=O)(OC[C@H]1O[C@@H](n2ccc(=O)[nH]c2=O)[C@](C)(F)[C@@H]1O)Oc1ccccc1 [sofosbuvir, reference compound] 2750

* * *

experiment: PK drug-drug interaction between SOF and Compound I; type: in vivo, human; conditions: human, plasma, oral; Compound I 150 mg multiple doses alone, GLSM
parameterMeasured: AUC (ng·h/mL)
Give just the number in ng·h/mL; leave the unit off.

Identify measured AUC corresponding to COC[C@H]1C[C@@H](c2ncc(-c3ccc4c(c3)COc3cc5c(ccc6nc([C@@H]7CC[C@H](C)N7C(=O)[C@@H](NC(=O)OC)C(C)C)[nH]c65)cc3-4)[nH]2)N(C(=O)[C@H](NC(=O)OC)c2ccccc2)C1 7280
